assay: Oral bioavailability in dog assessed as ratio of dose normalized oral AUC to intravenous AUC at 1 mg/kg by LC-MS/MS analysis; type: ADME, organism-based, Canis lupus familiaris; conditions: in vivo
Readout Label: bioavailability (%)
# output: bare number, implied unit %

Ask: Report bioavailability, nothing else, for this compound: "N=C(N)Nc1ccc2c(c1)CCCOc1c(cccc1C(=O)N[C@@H](CC(=O)O)C(=O)O)OC2=O"
Reply: 2.8

* * *

test: Stability of the compound at pH 6.8 assessed as drug decomposition at 10 ug/ml incubated for 24 hrs by HPLC analysis; assay type: physicochemical; details: buffer, at 10 µg/mL, read-out: Drug degradation
Readout Label: degraded at 24 h, 10 ug/ml (%)
Respond numerically; units are % and should not be typed.

# Chemical Smiles, Unit Abbrev, Measured Number
measured = [
    ("N=C(N)Nc1ccc2c(c1)CCCCc1c(cccc1C(=O)N[C@@H](CC(=O)O)C(=O)O)OC2=O", "%", 3.4),
]

Now for a further compound.
Ask: Identify measured degraded at 24 h, 10 ug/ml associated with "N=C(N)Nc1ccc2c(c1)CCCCCc1c(cccc1C(=O)N[C@@H](CC(=O)O)C(=O)O)OC2=O"
Reply: 0.6

* * *

experiment: Oral bioavailability in rat assessed as ratio of dose normalized oral AUC to intravenous AUC at 10 mg/kg by LC-MS/MS analysis; assay type: ADME, organism-based; settings: in vivo
Readout Label: bioavailability (%)
Provide the reading as a plain figure in %.

Ask: Please supply the value of reported bioavailability for the item "N=C(N)Nc1ccc2c(c1)CCCOc1c(cccc1C(=O)N[C@@H](CC(=O)O)C(=O)O)OC2=O"
Reply: 1

* * *

The entries below are paired with their reported T1/2.
biological target: Enteropeptidase (Homo sapiens, UniProt P98073); experiment: Inhibition of human recombinant enteropeptidase using 5FAM-Abu-Gly-Asp-Asp-Asp-Lys-Ile-Val-Gly-Gly-Lys(CPQ2)-Lys-Lys-NH2 as substrate assessed as dissociation half life preincubated with compound for 2 hrs followed by substrate addition and measured every 2 mins by fluorescence based analysis
Sequence (P98073 2-784 limits assumed): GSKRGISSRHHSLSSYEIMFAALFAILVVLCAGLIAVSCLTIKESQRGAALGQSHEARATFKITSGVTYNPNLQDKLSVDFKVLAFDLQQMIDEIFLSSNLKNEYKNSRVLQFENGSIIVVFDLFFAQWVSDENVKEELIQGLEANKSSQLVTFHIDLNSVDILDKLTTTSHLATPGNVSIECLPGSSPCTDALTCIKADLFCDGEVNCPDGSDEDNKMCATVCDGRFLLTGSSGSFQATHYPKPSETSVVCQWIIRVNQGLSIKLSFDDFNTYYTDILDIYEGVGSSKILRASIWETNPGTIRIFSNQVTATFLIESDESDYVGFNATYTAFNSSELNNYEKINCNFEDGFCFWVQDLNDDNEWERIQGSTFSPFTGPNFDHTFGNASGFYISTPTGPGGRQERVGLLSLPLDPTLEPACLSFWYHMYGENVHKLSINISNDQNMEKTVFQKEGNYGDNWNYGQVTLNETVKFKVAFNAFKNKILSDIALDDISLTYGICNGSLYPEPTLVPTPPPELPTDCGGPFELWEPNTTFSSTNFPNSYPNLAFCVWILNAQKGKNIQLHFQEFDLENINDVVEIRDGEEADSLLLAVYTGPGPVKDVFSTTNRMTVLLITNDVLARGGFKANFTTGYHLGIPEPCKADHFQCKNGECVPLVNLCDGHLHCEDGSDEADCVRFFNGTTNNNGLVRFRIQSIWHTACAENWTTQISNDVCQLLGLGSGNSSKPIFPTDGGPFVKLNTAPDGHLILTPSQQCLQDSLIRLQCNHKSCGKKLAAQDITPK
Sequence (P98073 785-1019 limits assumed): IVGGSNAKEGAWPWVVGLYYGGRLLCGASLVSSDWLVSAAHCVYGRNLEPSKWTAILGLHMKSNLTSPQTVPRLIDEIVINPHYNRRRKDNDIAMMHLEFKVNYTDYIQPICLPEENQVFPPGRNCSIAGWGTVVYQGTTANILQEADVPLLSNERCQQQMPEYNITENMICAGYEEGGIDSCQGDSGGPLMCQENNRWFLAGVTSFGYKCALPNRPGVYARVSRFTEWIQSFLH

Known results for compounds:
# Chemical Smiles, Tested System, T1/2
data = [
    ("N=C(N)Nc1ccc2c(c1)OCCCc1c(cccc1C(=O)N[C@@H](CC(=O)O)C(=O)O)OC2=O", "Enteropeptidase (Homo sapiens, UniProt P98073)", "0.27 h"),
    ("N=C(N)Nc1ccc2c(c1)CCCCOc1c(cccc1C(=O)N[C@@H](CC(=O)O)C(=O)O)OC2=O", "Enteropeptidase (Homo sapiens, UniProt P98073)", "> 2 h"),
    ("N=C(N)Nc1ccc2c(c1)CCCOc1c(cccc1C(=O)N[C@@H](CC(=O)O)C(=O)O)OC2=O", "Enteropeptidase (Homo sapiens, UniProt P98073)", "> 2 h"),
    ("N=C(N)Nc1ccc2c(c1)CCCCc1c(cccc1C(=O)N[C@@H](CC(=O)O)C(=O)O)OC2=O", "Enteropeptidase (Homo sapiens, UniProt P98073)", "> 2 h"),
]

Let us move to another entry and its T1/2.
Ask: Look up T1/2 of "N=C(N)Nc1ccc2c(c1)CCCCCc1c(cccc1C(=O)N[C@@H](CC(=O)O)C(=O)O)OC2=O" and report it.
Reply: > 2 h

* * *

The entries below are paired with their reported pIC50.
target: Enteropeptidase (Homo sapiens); assay: Inhibition of human recombinant enteropeptidase using 5FAM-Abu-Gly-Asp-Asp-Asp-Lys-Ile-Val-Gly-Gly-Lys(CPQ2)-Lys-Lys-NH2 as substrate incubated for 120 mins by fluorescence plate reader analysis
In simple prose, pIC50 is minus the logarithm base ten of a concentration in moles per litre.

Below, each entry is followed by its recorded pIC50 result.
# Chemical Smiles, pIC50
records = [
    ("Cc1ccc(C(=O)N[C@@H](CC(=O)O)C(=O)O)cc1OC(=O)c1ccc(NC(=N)N)cc1", 6.15),
    ("N=C(N)Nc1ccc2c(c1)CCCCCc1c(cccc1C(=O)N[C@@H](CC(=O)O)C(=O)O)OC2=O", 8.54),
    ("N=C(N)Nc1ccc2c(c1)CCCOc1c(cccc1C(=O)N[C@@H](CC(=O)O)C(=O)O)OC2=O", 9.39),
    ("N=C(N)Nc1ccc2c(c1)OCCCc1c(cccc1C(=O)N[C@@H](CC(=O)O)C(=O)O)OC2=O", 9.16),
    ("N=C(N)Nc1ccc2c(c1)CCCCCCc1c(cccc1C(=O)N[C@@H](CC(=O)O)C(=O)O)OC2=O", 7.09),
]

Ask: Enter pIC50 (test system Enteropeptidase (Homo sapiens)) for "Cc1c(OC(=O)c2ccc(NC(=N)N)cc2)cccc1C(=O)N[C@@H](CC(=O)O)C(=O)O"
Reply: 8.36

Ask: Supply pIC50 measured with Enteropeptidase (Homo sapiens) for "N=C(N)Nc1ccc2c(c1)CCCc1c(cccc1C(=O)N[C@@H](CC(=O)O)C(=O)O)OC2=O" .
Reply: 7.66

Ask: Under Enteropeptidase (Homo sapiens), report pIC50 for "N=C(N)Nc1ccc2c(c1)CCCCOc1c(cccc1C(=O)N[C@@H](CC(=O)O)C(=O)O)OC2=O"
Reply: 8.77

Ask: Under Enteropeptidase (Homo sapiens): report pIC50 of "N=C(N)Nc1ccc2c(c1)CCCCc1c(cccc1C(=O)N[C@@H](CC(=O)O)C(=O)O)OC2=O" .
Reply: 8.49

* * *

test: Inhibition of rat recombinant enteropeptidase catalytic domain (818 to 1057 residues) using 5FAM-Abu-Gly-Asp-Asp-Asp-Lys-Ile-Val-Gly-Gly-Lys(CPQ2)-Lys-Lys-NH2 as substrate incubated for 120 mins by fluorescence plate reader analysis
Readout Label: IC50 (pM)
# unit: pM | format: bare number

Ask: Consider the compound "N=C(N)Nc1ccc2c(c1)CCCOc1c(cccc1C(=O)N[C@@H](CC(=O)O)C(=O)O)OC2=O" . State its measured IC50.
Reply: 620

* * *

biological target: Enteropeptidase (Homo sapiens, UniProt P98073); experiment: Inhibition of human recombinant enteropeptidase using 5FAM-Abu-Gly-Asp-Asp-Asp-Lys-Ile-Val-Gly-Gly-Lys(CPQ2)-Lys-Lys-NH2 as substrate incubated for 6 mins by fluorescence plate reader analysis
Some compounds, each annotated with its measured pIC50.
pIC50 is defined as minus the log10 of a concentration measured in mol/L.

Field: example entries. Status: answers known.
# Chemical Smiles, Tested System, pIC50
rows = [
    ("N=C(N)Nc1ccc2c(c1)CCCOc1c(cccc1C(=O)N[C@@H](CC(=O)O)C(=O)O)OC2=O", "Enteropeptidase (Homo sapiens, UniProt P98073)", 8.03),
    ("N=C(N)Nc1ccc2c(c1)CCCc1c(cccc1C(=O)N[C@@H](CC(=O)O)C(=O)O)OC2=O", "Enteropeptidase (Homo sapiens, UniProt P98073)", 6.37),
    ("N=C(N)Nc1ccc2c(c1)CCCCCc1c(cccc1C(=O)N[C@@H](CC(=O)O)C(=O)O)OC2=O", "Enteropeptidase (Homo sapiens, UniProt P98073)", 7.02),
    ("N=C(N)Nc1ccc2c(c1)CCCCc1c(cccc1C(=O)N[C@@H](CC(=O)O)C(=O)O)OC2=O", "Enteropeptidase (Homo sapiens, UniProt P98073)", 7.03),
    ("N=C(N)Nc1ccc2c(c1)CCCCCCc1c(cccc1C(=O)N[C@@H](CC(=O)O)C(=O)O)OC2=O", "Enteropeptidase (Homo sapiens, UniProt P98073)", 5.60),
]

Ask: Give the reported pIC50 for this compound. "N=C(N)Nc1ccc2c(c1)OCCCc1c(cccc1C(=O)N[C@@H](CC(=O)O)C(=O)O)OC2=O"
Reply: 8.06

Ask: Give the reported value of pIC50 for this record: "Cc1c(OC(=O)c2ccc(NC(=N)N)cc2)cccc1C(=O)N[C@@H](CC(=O)O)C(=O)O"
Reply: 7.16

Ask: State, in one line, measured pIC50 of "N=C(N)Nc1ccc2c(c1)CCCCOc1c(cccc1C(=O)N[C@@H](CC(=O)O)C(=O)O)OC2=O"
Reply: 7.59

* * *

experiment: Stability of the compound at pH 1.2 assessed as drug decomposition at 10 ug/ml incubated for 24 hrs by HPLC analysis; format: physicochemical; conditions: buffer, at 10 µg/mL, read-out: Drug degradation
The following compounds are listed with their measured degraded at 24 h, 10 ug/ml values.
Give just the numeric value; % need not be written.

# Chemical Smiles, Measured Number
measured = [
    ("N=C(N)Nc1ccc2c(c1)CCCCc1c(cccc1C(=O)N[C@@H](CC(=O)O)C(=O)O)OC2=O", 1.2),
]

Proceed to the following item.
Ask: State its degraded at 24 h, 10 ug/ml for this compound: "N=C(N)Nc1ccc2c(c1)CCCCCc1c(cccc1C(=O)N[C@@H](CC(=O)O)C(=O)O)OC2=O"
Reply: 0.4

* * *

test: Oral bioavailability in mouse assessed as ratio of dose normalized oral AUC to intravenous AUC at 10 mg/kg by LC-MS/MS analysis; assay type: ADME, organism-based; conditions: in vivo
Readout Label: bioavailability (%)
Your answer should be a plain number; it is taken to be in %.

Ask: Provide bioavailability value for the following molecule: "N=C(N)Nc1ccc2c(c1)CCCOc1c(cccc1C(=O)N[C@@H](CC(=O)O)C(=O)O)OC2=O"
Reply: 1.1
